Target: T1, biotinylated synthetic human Amyloid beta 1-42 peptide (human, UniProt P05067 672-713, biotinylated (N-terminal biotin in Example 4))
T1 construct: domain: Amyloid beta 1-42 peptide; Numbers 1-42 count on the Amyloid beta peptide, not on APP; also called biotinylated human Amyloid beta 1-42; N-terminal biotin Abeta 1-42
T1 sequence (P05067 672-713 limits assumed): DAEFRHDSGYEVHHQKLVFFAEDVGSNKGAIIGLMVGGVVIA
Assay: SPR (ProteOn); biotinylated peptide on streptavidin chip, scFv in solution
Method: These experiments were performed essentially as described by Karlsson et al. (Karlsson et al., 1991). The chip surface was regenerated between cycles by a single 60 second injection of 10 mM Glycine pH 2.0 to remove scFv bound to the peptide. Each scFv at 100-200 nM was sequentially passed over the peptide surface for a sufficient amount of time to observe sensorgrams that could be fitted to an appropriate binding model with confidence. […]
Listed here: items and their measured Kd.
I only need the number, in nM, no unit after it.

binder: Abet0369 scFv (scFv, V domains shown, not shown: small tags and cut ends, Purified scFv expressed in E. coli) VH: EVQLLESGGGLVQPGGSLRLSCAASSFQISKNTMWWVRRAPGKGLEWVSVIGKDETRFNYADSVKGRFTISRDNSKNTLYLQMNSLRAEDTAVYYCAREWMDHSRPYYYYGMDVWGQGTLVTVSS VL: SYGLTQPPSVSVSPGQTASITCSGRNIGDSWVAWYQQKPGQSPVLVIYRDDKRPSGIPERFSASNSGHTATLTISGTQATDEADYYCSSQDTVTRVFGGGTKLTVL
reported-property: Kd
unit-name: nM
result: 0.133

Field request: Kd | item: Abet0383 scFv (scFv, V domains shown, not shown: small tags and cut ends, Purified scFv expressed in E. coli) VH: EVQLLESGGGLVQPGGSLKLSCAASGFTFDWYPMWWVRQAPGKRLEWISVIGADNAKIAYADSVKGRFTISRDNSKNTLYLQMNSLRAEDTAVYYCAREWMGHSRPYYYYGMDVWGQGTPVTVSS VL: SYELTQPPSVSVSPGQTASITCSGHNLGDKFASWYQQKPGQSPVLVIYRDDKRPSGIPERFSASNSGHTATLTISGTQATDEADYYCSSQDTVTRVFGGGTKLTVL
0.217
